Sourced from patent US20260209152A1

# System: Rhabomyosarcoma A-204
# METHOD: CellTiter Glo cell viability assay
# Type: cell-based
# RUN CONDITIONS: Homo sapiens, A204; A-204/HTB-82; 11 dilutions 3-0.00001 μM; read-out: IC50
Record form. Attribute: pIC50. Fill in for each entry.
Lab note — pIC50 values are minus log10 of concentrations in M.

stdin: Any idea what its pIC50 is? The compound is CCOc1cc(O)cc(/C=C/c2ccc(O)c(O)c2)c1CC=C(C)C [Compound 20]
stdout: 6.88

stdin: Any idea what its pIC50 is? The compound is COc1cc(/C=C/c2cc(O)cc(OC)c2CC=C(C)C)ccc1NC=O [Compound 27]
stdout: 7.28

stdin: Any idea what its pIC50 is? The compound is CCOc1cc(O)cc(/C=C/c2ccc(O)c(OC)c2)c1CC=C(C)C [Compound 8]
stdout: 7.17

stdin: Any idea what its pIC50 is? The compound is COc1cc(/C=C/c2cc(O)cc(OC)c2CC=C(C)C)ccc1O [Compound 1]
stdout: 6.70

stdin: Any idea what its pIC50 is? The compound is CCOc1cc(O)cc(/C=C/c2ccc(NC=O)c(OC)c2)c1CC=C(C)C [Compound 28]
stdout: 7.60

====

# System: Kidney Caki-1
# METHOD: CellTiter Glo cell viability assay
# Assay type: cell-based, human
# RUN CONDITIONS: Homo sapiens; Caki-1/HTB-46; 11 dilutions 3-0.00001 μM; read-out: IC50
Record form. Attribute: pIC50. Fill in for each entry.
Lab note — pIC50 values are minus log10 of concentrations in M.

stdin: Any idea what its pIC50 is? The molecule is COc1cc(/C=C/c2cc(O)cc(OC)c2CC=C(C)C)ccc1NC=O [Compound 27]
stdout: 7.81

stdin: Any idea what its pIC50 is? The molecule is CCOc1cc(O)cc(/C=C/c2ccc(O)c(OC)c2)c1CC=C(C)C [Compound 8]
stdout: 7.55

stdin: Any idea what its pIC50 is? The molecule is CCOc1cc(O)cc(/C=C/c2ccc(NC=O)c(OC)c2)c1CC=C(C)C [Compound 28]
stdout: 8.14

stdin: Any idea what its pIC50 is? The molecule is COc1cc(/C=C/c2cc(O)cc(OC)c2CC=C(C)C)ccc1O [Compound 1]
stdout: 6.92

stdin: Any idea what its pIC50 is? The molecule is CCOc1cc(O)cc(/C=C/c2ccc(O)c(O)c2)c1CC=C(C)C [Compound 20]
stdout: 7.02

====

# System: Pancreatic MIA PaCa-2
# METHOD: CellTiter Glo cell viability assay
# Assay type: cell-based, human
# RUN CONDITIONS: Homo sapiens, MIA PaCa-2, Table 5A: 11 dilutions 3-0.00001 μM; average of experiments; read-out: IC50 average
Record form. Attribute: IC50. Fill in for each entry.
Express the result in nM but write the number alone.

stdin: Any idea what its IC50 is? The compound is CCOc1cc(O)cc(/C=C/c2ccc(O)c(OC)c2)c1CC=C(C)C [Compound 8]
stdout: 25

stdin: Any idea what its IC50 is? The compound is COc1cc(/C=C/c2cc(O)cc(OC)c2CC=C(C)C)ccc1NC=O [Compound 27]
stdout: 15

stdin: Any idea what its IC50 is? The compound is COc1cc(/C=C/c2cc(O)cc(OC)c2CC=C(C)C)ccc1O [Compound 1]
stdout: 80.6

====

# Tested on: Fibrosarcomas SW 684
# METHOD: CellTiter Glo cell viability assay
# Assay type: cell-based, human
# RUN CONDITIONS: Homo sapiens, SW684, 72 h; 3 Days of treatment; 18 2-fold dilutions 5-0.00003 μM
MEASURED ATTRIBUTE: IC50 (nM)
Express the result in nM but write the number alone.

stdin: Any idea what its IC50 is? The compound is COc1cc(/C=C/c2cc(O)cc(OC)c2CC=C(C)C)ccc1O [Compound 1]
stdout: 55.2

stdin: Any idea what its IC50 is? The compound is CCOc1cc(O)cc(/C=C/c2ccc(O)c(OC)c2)c1CC=C(C)C [Compound 8]
stdout: 4.63

====

Record form. Attribute: pIC50. Fill in for each entry.
# Tested on: Brain U-87 MG HTB-14
# METHOD: CellTiter Glo cell viability assay
# Type: cell-based
# RUN CONDITIONS: Homo sapiens, Table 5B: 11 dilutions 3-0.00001 μM, Exp L-N
Lab note — pIC50 values are minus log10 of concentrations in M.

stdin: Any idea what its pIC50 is? The compound is `COc1cc(/C=C/c2cc(O)cc(NC(C)=O)c2CC=C(C)C)ccc1O`
stdout: 5.85

stdin: Any idea what its pIC50 is? The compound is `COc1cc(/C=C/c2cc(O)cc(NC=O)c2CC=C(C)C)ccc1O`
stdout: 6.26

====

Record form. Attribute: IC50. Fill in for each entry.
# Test system: Pharynx FADU
# METHOD: CellTiter Glo cell viability assay
# Assay type: cell-based, human
# RUN CONDITIONS: Homo sapiens; Fadu/HTB-43; 11 dilutions 3-0.00001 μM; read-out: IC50
Express the result in µM but write the number alone.

stdin: Please state recorded IC50 (tested on Pharynx FADU) of CCOc1cc(O)cc(/C=C/c2ccc(NC=O)c(OC)c2)c1CC=C(C)C [Compound 28]
stdout: 0.0118

stdin: Please state recorded IC50 (tested on Pharynx FADU) of CCOc1cc(O)cc(/C=C/c2ccc(O)c(OC)c2)c1CC=C(C)C [Compound 8]
stdout: 0.0541

stdin: Please state recorded IC50 (tested on Pharynx FADU) of CCOc1cc(O)cc(/C=C/c2ccc(O)c(O)c2)c1CC=C(C)C [Compound 20]
stdout: 0.0801

stdin: Please state recorded IC50 (tested on Pharynx FADU) of COc1cc(/C=C/c2cc(O)cc(OC)c2CC=C(C)C)ccc1O [Compound 1]
stdout: 0.139

stdin: Please state recorded IC50 (tested on Pharynx FADU) of COc1cc(/C=C/c2cc(O)cc(OC)c2CC=C(C)C)ccc1NC=O [Compound 27]
stdout: 0.0286

====

# Test system: Leiomyosarcoma SK-UT-1B
# METHOD: CellTiter Glo cell viability assay
# Format: cell-based, human
# RUN CONDITIONS: Homo sapiens, Skut1B, 72 h; 3 Days of treatment; 18 2-fold dilutions 5-0.00003 μM
Record form. Attribute: IC50. Fill in for each entry.
Express the result in nM but write the number alone.

stdin: Any idea what its IC50 is? The compound is `COc1cc(/C=C/c2cc(O)cc(OC)c2CC=C(C)C)ccc1O`
stdout: 22.6

stdin: Any idea what its IC50 is? The compound is `CCOc1cc(O)cc(/C=C/c2ccc(O)c(OC)c2)c1CC=C(C)C`
stdout: 6.39

====

# Test system: Kidney A-498
# METHOD: CellTiter Glo cell viability assay
# Type: cell-based, human
# RUN CONDITIONS: Table 5A: 11 dilutions 3-0.00001 μM; single experiments Exp E-K; listed as KYN-139; read-out: IC50
# Protocol: 1.7*10^3 cells/well were seeded in quadruplicates in 96-well plate after plating. […] Cell growth was assessed on day 1, 3 and 5 after drug treatments using the CellTiter Glo Luminescence Cell Viability Assay (Promega) according to manufacturer's protocol. Thermo Scientific Varioskan LUX Multimode Microplate instrument was used for plate reading. Data are expressed as mean luminescence (arbitrary units) ±S.D. […]
MEASURED ATTRIBUTE: pIC50
Lab note — pIC50 values are minus log10 of concentrations in M.

stdin: Please state recorded pIC50 (tested on Kidney A-498) of `C/C=C\Cc1c(/C=C/c2ccc(O)c(OC)c2)cc(O)cc1OC`
stdout: 6.26

====

# Tested on: Pancreatic MIA PaCa-2
# METHOD: CellTiter Glo cell viability assay
# Format: cell-based, human
# RUN CONDITIONS: Table 5A: 11 dilutions 3-0.00001 μM; single experiments Exp E-K; read-out: IC50
Record form. Attribute: IC50. Fill in for each entry.
Express the result in nM but write the number alone.

stdin: Please state recorded IC50 (tested on Pancreatic MIA PaCa-2) of C/C=C/Cc1c(/C=C/c2ccc(O)c(OC)c2)cc(O)cc1OC [Compound 2]
stdout: 135

stdin: Please state recorded IC50 (tested on Pancreatic MIA PaCa-2) of CCCOc1cc(O)cc(/C=C/c2ccc(O)c(OC)c2)c1CC=C(C)C [Compound 9]
stdout: 115

stdin: Please state recorded IC50 (tested on Pancreatic MIA PaCa-2) of CCOc1cc(O)cc(/C=C/c2ccc(NCC(=O)OC)c(OC)c2)c1CC=C(C)C [Compound 34]
stdout: 173

====

Record form. Attribute: pIC50. Fill in for each entry.
# Test system: Kidney A-498
# METHOD: CellTiter Glo cell viability assay
# Format: cell-based, human
# RUN CONDITIONS: Homo sapiens, A498, A-498/HTB-44; 11 dilutions 3-0.00001 μM; Table 6; read-out: IC50
Lab note — pIC50 values are minus log10 of concentrations in M.

stdin: Please state recorded pIC50 (tested on Kidney A-498) of COc1cc(/C=C/c2cc(O)cc(OC)c2CC=C(C)C)ccc1O [Compound 1]
stdout: 5.97

stdin: Please state recorded pIC50 (tested on Kidney A-498) of COc1cc(/C=C/c2cc(O)cc(OC)c2CC=C(C)C)ccc1NC=O [Compound 27]
stdout: 6.19

stdin: Please state recorded pIC50 (tested on Kidney A-498) of CCOc1cc(O)cc(/C=C/c2ccc(O)c(O)c2)c1CC=C(C)C [Compound 20]
stdout: 6.21

stdin: Please state recorded pIC50 (tested on Kidney A-498) of CCOc1cc(O)cc(/C=C/c2ccc(NC=O)c(OC)c2)c1CC=C(C)C [Compound 28]
stdout: 6.70

stdin: Please state recorded pIC50 (tested on Kidney A-498) of CCOc1cc(O)cc(/C=C/c2ccc(O)c(OC)c2)c1CC=C(C)C [Compound 8]
stdout: 6.40
